biological target: T1, human CD33 extracellular domain (human, UniProt P20138 18-259); experiment: SPR, Fab captured, 37C;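 note: surface plasmon resonance with Fabs captured on anti-Fab surface, soluble monomeric CD33 as analyte at several concentrations, double-referenced 1:1 model fit, KD as koff/kon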
T1 construct: soluble monomeric ECD; also called human CD33 ECD; hCD33
measured metric: kon (M⁻¹ s⁻¹)
Could you give me the number in M⁻¹ s⁻¹? Just the number is fine.

Prompt: Query: kon; subject: ADI-10161 Fab (Fab, V domains shown, Fab fragment; also called Ab16) VH: EVQLVESGGGLVQPGGSLRLSCAASGFTFSSYWMSWVRQAPGKGLEWVANINQDGSEKYYVDSVKGRFTISRDNAKNSLYLQMNSLRAEDTAVYYCAREGGDSWYHAFDIWGQGTMVTVSS VL: DIQMTQSPSSVSASVGDRVTITCRASQGISSWLAWYQQKPGKAPKLLIYAASNLQSGVPSRFSGSGSGTDFTLTISSLQPEDFATYYCQQKLSLPLTFGGGTKVEIK
Completion: 574000

Prompt: Input ADI-11828 Fab (Fab, V domains shown, Fab fragment; also called Ab27) VH: EVQLVESGGGLVQPGGSLRLSCAASGFTFSSYWMSWVRQAPGKGLEWVANINQDGSEVYYVDSVKGRFTISRDNAKNSLYLQMNSLRAEDTAVYYCARDVGPGIAYQGHFDYWGQGTLVTVSS VL: DIQMTQSPSSLSASVGDRVTITCRASQSIYYYLNWYQQKPGKAPKLLIYAASSRQSGVPSRFSGSGSGTDFTLTISSLQPEDFATYYCQQVYDTPLTFGGGTKVEIK
Completion: 1.32e+06

Prompt: Please give the result for ADI-11835 Fab (Fab, V domains shown, Fab fragment; also called Ab10; I35) VH: QLQLQESGPGLVKPSETLSLTCTVSGGSISSTDYYWGWIRQPPGKGLEWIGSIGYSGTYYNPSLKSRVTISVDTSKNQFSLKLSSVTAADTAVYYCARETAHDVHGMDVWGQGTTVTVSS VL: EIVLTQSPATLSLSPGERATLSCRASHSVYSYLAWYQQKPGQAPRLLIYDASNRATGIPARFSGSGSGTDFTLTISSLEPEDFAVYYCQQYDNLPTFGGGTKVEIK too.
Completion: 2.6e+06

Prompt: Now try ADI-11819 Fab (Fab, V domains shown, Fab fragment; also called Ab8) VH: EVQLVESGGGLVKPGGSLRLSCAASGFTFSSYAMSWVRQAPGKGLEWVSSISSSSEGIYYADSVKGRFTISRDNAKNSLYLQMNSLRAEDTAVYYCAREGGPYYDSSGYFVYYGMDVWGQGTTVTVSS VL: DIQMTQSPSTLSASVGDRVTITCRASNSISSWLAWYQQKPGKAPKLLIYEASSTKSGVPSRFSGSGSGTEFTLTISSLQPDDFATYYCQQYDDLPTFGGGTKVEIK .
Completion: 2.84e+06

Prompt: Try this binder too: ADI-10177 Fab (Fab, V domains shown, Fab fragment; also called Ab2) VH: EVQLVESGGGLVQPGGSLRLSCAASGFTFSSYWMSWVRQAPGKGLEWVANIKQDGSEKYYVDSVKGRFTISRDNAKNSLYLQMNSLRAEDTAVYYCARPLNAGELDVWGQGTMVTVSS VL: DIQMTQSPSTLSASVGDRVTITCRASQSISSWLAWYQQKPGKAPKLLIYEASSLESGVPSRFSGSGSGTEFTLTISSLQPDDFATYYCQQLESYPLTFGGGTKVEIK
Completion: 558000

Just for reference, patent US20220380459A1 is where these values come from.
